Each item that follows carries a reported pIC50.
Molecular target: dopamine D2 receptor (Homo sapiens (Human))
Sequence (P14416 whole entry, species assumed): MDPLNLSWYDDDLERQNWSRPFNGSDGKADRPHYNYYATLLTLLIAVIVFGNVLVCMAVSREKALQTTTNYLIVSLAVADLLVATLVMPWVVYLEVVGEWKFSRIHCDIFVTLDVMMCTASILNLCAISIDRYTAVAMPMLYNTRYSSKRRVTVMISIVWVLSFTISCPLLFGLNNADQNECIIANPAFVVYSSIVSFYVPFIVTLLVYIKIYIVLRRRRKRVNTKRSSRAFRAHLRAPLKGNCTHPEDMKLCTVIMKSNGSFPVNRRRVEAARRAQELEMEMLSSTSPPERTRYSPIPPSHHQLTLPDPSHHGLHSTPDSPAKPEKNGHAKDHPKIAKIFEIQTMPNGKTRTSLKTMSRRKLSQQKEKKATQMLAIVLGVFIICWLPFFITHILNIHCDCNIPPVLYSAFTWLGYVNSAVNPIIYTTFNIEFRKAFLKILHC
Test: Dopamine D2 receptor affinity, in vitro radioligand binding with 125I-spiperone
Conditions: 125I-spiperone as radioactive ligand
Source text: It is well-known that drug compounds that have an affinity for the striatal dopamine D2 may give rise to adverse side effects, such as short-term extrapyramidal disorders and tardive dyskinesia.
Counter-ions that a name gives are not always drawn.
// returns pIC50 (minus log10 of molar concentration), number only

CCN(CC)CCNC(=O)c1ccc(N)c(Cl)c1 [Declopramide, declopramide]: 4.41

Please look at the following compound next.
Using the record for CCN(CC)CCNC(=O)c1ccc(NC(C)=O)c(Cl)c1 [Cpd A, hydrochloride] , report its pIC50.
3.01

These entries and their values trace back to patent US11717500B2.
